target: FPTase (Homo sapiens, UniProt P49354+P49356)
experiment-description: in vitro FTase Inhibition Assay, H-Ras used as substrate for farnesylation
Assay type: biochemical
measurement-conditions: Table I, read-out: IC50 H-Ras*
assay-readout: IC50 (nM)
Please give a number only; it is taken to be in nM.

Below: 4 compounds and their reported IC50.
O=C1NC(=O)C(CCCC#Cc2ccc(Cl)cc2)(S(=O)(=O)c2ccc([N+](=O)[O-])cc2)S1 (stereo not drawn) [Example 110]; 400
COc1ccc(S(=O)(=O)C2(CC#Cc3ccc(-c4ccccc4)cc3)SC(=O)NC2=O)cc1 (stereo not drawn) [Example 171]; 200
COc1ccc(S(=O)(=O)C2(CCCC#Cc3ccc(C#N)cc3)SC(=O)NC2=O)cc1 (stereo not drawn) [Example 158]; 150
Cc1ccc(S(=O)(=O)C2(CC#Cc3cccs3)SC(=O)NC2=O)cc1 (stereo not drawn) [Example 168]; 280

As a next step, examine the compound that follows.
(Q) # return recorded IC50 for entry O=C1NC(=O)C(CCCC#Cc2ccc(Cl)cc2)(Sc2ccc(F)cc2)S1 (stereo not drawn) [Example 96]
(A) 700

====

Entries annotated with measured melting point

(Q) # return recorded melting point for entry Cc1cc(Br)ccc1C#CCCCC1(S(=O)(=O)c2ccc(I)cc2)SC(=O)NC1=O (centres unmarked)
(A) 146 to 147 °C

(Q) # return recorded melting point for entry O=C1NC(=O)C(CCCC#Cc2ccc(Cl)cc2)(S(=O)(=O)c2ccc(Oc3ccccc3)cc2)S1 (centres unmarked)
(A) 193 to 194 °C

(Q) # return recorded melting point for entry CC(=O)Nc1ccc(S(=O)(=O)C2(CCCC#Cc3ccc(Cl)cc3)SC(=O)NC2=O)cc1 (centres unmarked)
(A) 232 °C (dec.)

(Q) # return recorded melting point for entry COc1cccc(S(=O)(=O)C2(CCCC#Cc3cccs3)SC(=O)NC2=O)c1 (centres unmarked)
(A) 133 to 135 °C

(Q) # return recorded melting point for entry O=C1NC(=O)C(CCCC#Cc2ccc(Cl)cc2)(S(=O)(=O)c2ccc3ccccc3c2)S1 (centres unmarked)
(A) 150 to 153 °C

====

target: FPTase (Homo sapiens, UniProt P49354+P49356)
experiment-description: in vitro FTase Inhibition Assay, H-Ras used as substrate for farnesylation
Format: biochemical
measurement-conditions: Table I, read-out: IC50 H-Ras*
Entries annotated with measured IC50

COc1ccc(S(=O)(=O)C2(CCCC#Cc3cc([N+](=O)[O-])ccc3C)SC(=O)NC2=O)cc1 (stereo not shown) [Example 122]; 30 to 50 nM
O=C1NC(=O)C(CCCC#Cc2cc(Cl)ccc2Cl)(S(=O)(=O)c2ccc(Oc3ccncc3)cc2)S1 (stereo not shown) [Example 116]; 5 to 10 nM
COc1ccc(S(=O)(=O)C2(CCCC#Cc3cc(NC(=O)OC(C)C)ccc3C)SC(=O)NC2=O)cc1 (stereo not shown) [Example 179]; 2 to 32 nM
Cc1ccc([N+](=O)[O-])cc1C#CCCCC1(S(=O)(=O)c2cccc3ccccc23)SC(=O)NC1=O (stereo not shown) [Example 126]; 90 nM

(Q) # return recorded IC50 for entry COc1ccc(S(=O)(=O)C2(CCCC#Cc3ccc(-n4cccc4)cc3)SC(=O)NC2=O)cc1 (stereo not shown) [Example 161]
(A) 900 nM

(Q) # return recorded IC50 for entry COc1ccc(S(=O)(=O)C2(CCCC#Cc3ccc(NC(=O)OC(C)(C)C)cc3C(F)(F)F)SC(=O)NC2=O)cc1 (stereo not shown) [Example 151]
(A) 530 to 700 nM

(Q) # return recorded IC50 for entry O=C1NC(=O)C(CCCC#Cc2ccc(Cl)cc2)(S(=O)(=O)c2cccc3ccccc23)S1 (stereo not shown) [Example 113]
(A) 50 to 60 nM

====

target: FPTase (Homo sapiens, UniProt P49354+P49356)
experiment-description: in vitro FTase Inhibition Assay, K-Ras used as substrate for farnesylation
Format: biochemical
measurement-conditions: Table I
Entries annotated with measured pIC50
The quantity pIC50 is defined as the negative base-10 logarithm of the molar concentration.

COc1ccc(S(=O)(=O)C2(CCCC#Cc3ccc(Br)cc3C)SC(=O)NC2=O)cc1 (stereo not drawn); 6.07

As a next step, examine the molecule that follows.
(Q) # return recorded pIC50 for entry COc1ccc(S(=O)(=O)C2(CCCC#Cc3cccc(Cl)c3)SC(=O)NC2=O)cc1 (stereo not drawn)
(A) 5.85

====

target: FPTase (Homo sapiens, UniProt P49354+P49356)
experiment-description: in vitro FTase Inhibition Assay, H-Ras used as substrate for farnesylation
Format: biochemical
measurement-conditions: Table I, read-out: IC50 H-Ras*
Experimental: Enzyme test procedure: FPTase inhibition in vitro assay was performed according to James, G. L., Brown, M. S., and Goldstein, J. L., Methods in Enzymology, 1995, 255, 38-46; and Garcia, M. A., et al., J. Biol. Chem., 1993, 268, 18415-18420. […] Analysis of Results—Percent inhibition by test compounds is determined by the following: […]
Entries annotated with measured IC50

Below: 5 molecules and their reported IC50.
COc1ccc(S(=O)(=O)C2(CCCC#Cc3cc(NC(=O)OCC(C)C)ccc3C)SC(=O)N(C(=O)OCC(C)C)C2=O)cc1 (stereo not shown); 0.005 to 0.01 µM
COC(=O)Nc1ccc(C)c(C#CCCCC2(S(=O)(=O)c3ccc(OC)cc3)SC(=O)NC2=O)c1 (stereo not shown); 0.017 to 0.032 µM
COc1ccc(S(=O)(=O)C2(CCCC#Cc3cc(NC(=O)OCC(C)C)ccc3C)SC(=O)NC2=O)cc1 (stereo not shown); 0.005 to 0.01 µM
COc1ccc(S(=O)(=O)C2(CCCC#Cc3ccc(NC(=O)OC(C)(C)C)cc3)SC(=O)NC2=O)cc1 (stereo not shown); 1.2 to 1.7 µM
Cc1cc(Cl)ccc1C#CCCCC1(S(=O)(=O)c2ccc(I)cc2)SC(=O)NC1=O (stereo not shown); 0.021 to 0.032 µM

(Q) GET IC50 | system: FPTase (Homo sapiens, UniProt P49354+P49356) | item: Cc1ccc(NC(=O)OC(C)(C)C)cc1C#CCCCC1(S(=O)(=O)c2ccc(I)cc2)SC(=O)NC1=O (stereo not shown)
(A) 0.0045 to 0.12 µM

(Q) GET IC50 | system: FPTase (Homo sapiens, UniProt P49354+P49356) | item: Cc1ccc(C#CCCCC2(S(=O)(=O)c3ccc(I)cc3)SC(=O)NC2=O)c(C)c1 (stereo not shown)
(A) 0.021 to 0.4 µM

Data provenance is patent US6605628B1.
